target: T1, Mouse serum albumin (mouse, UniProt P07724 25-608); test: ITC; VP-ITC calorimeter; peptide serially diluted and injected; KD by Microcal ORIGIN Ver. 5.0; method by refs 48, 49; conditions: both partners purified
T1 construct: serum albumin, mouse; also called MSA; source: bought: Sigma
T1 sequence (P07724 25-608): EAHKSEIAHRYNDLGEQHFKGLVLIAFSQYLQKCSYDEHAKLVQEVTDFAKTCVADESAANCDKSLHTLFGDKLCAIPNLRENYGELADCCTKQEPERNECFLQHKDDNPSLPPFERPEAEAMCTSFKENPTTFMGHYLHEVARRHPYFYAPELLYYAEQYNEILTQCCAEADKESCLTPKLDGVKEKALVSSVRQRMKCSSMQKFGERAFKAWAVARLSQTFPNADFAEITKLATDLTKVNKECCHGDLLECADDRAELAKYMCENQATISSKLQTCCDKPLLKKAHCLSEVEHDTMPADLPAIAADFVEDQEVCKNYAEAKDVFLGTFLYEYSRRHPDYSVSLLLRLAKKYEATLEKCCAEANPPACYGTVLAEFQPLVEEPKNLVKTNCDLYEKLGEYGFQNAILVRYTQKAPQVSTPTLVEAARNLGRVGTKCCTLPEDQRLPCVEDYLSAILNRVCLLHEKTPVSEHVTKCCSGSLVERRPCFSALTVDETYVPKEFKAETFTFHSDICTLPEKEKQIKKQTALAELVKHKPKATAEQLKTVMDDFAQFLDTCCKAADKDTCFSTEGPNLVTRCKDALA
Observation type: pKd
Would you please state pKd, meaning minus log10 of the concentration in mol/L, as a bare number?

May I ask what pKd has been recorded for MWQRPSSWIEGRLLTHTISRIAVSYQTKVNLL (P16, TNF α segment of amino acid residues 75-94, human; also called recombinant peptide RMP16) [RMP16, recombinant TNF α-derived polypeptide] ?
6.05
